# System: RAW 264.7 cells
# TEST: Nitric oxide suppression assay (IFNγ-induced NO production)
# Format: cell-based, mouse
# ASSAY CONTEXT: average of ratios from replicate experiments; benchmark RTA 402
MEASUREMENT TYPE: NO IC50 Relative to RTA 402 (fold) (Mean ± SD)

COMPOUND	RESULT
CCc1nnc([C@]23CCC(C)(C)C[C@H]2[C@H]2C(=O)C=C4[C@@]5(C)C=C(C#N)C(=O)C(C)(C)[C@@H]5CC[C@@]4(C)[C@]2(C)CC3)o1 [Compound T46]	1.60 ± 0.29 fold
CC1(C)CC[C@]2(c3noc(CO)n3)CC[C@]3(C)[C@H](C(=O)C=C4[C@@]5(C)C=C(C#N)C(=O)C(C)(C)[C@@H]5CC[C@]43C)[C@@H]2C1 [Compound T4]	0.48 ± 0.13 fold
COCCc1noc([C@]23CCC(C)(C)C[C@H]2[C@H]2C(=O)C=C4[C@@]5(C)C=C(C#N)C(=O)C(C)(C)[C@@H]5CC[C@@]4(C)[C@]2(C)CC3)n1 [Compound T15]	0.38 ± 0.04 fold
Cc1nnc([C@]23CCC(C)(C)C[C@H]2[C@H]2C(=O)C=C4[C@@]5(C)C=C(C#N)C(=O)[C@@H](C)[C@@H]5CC[C@@]4(C)[C@]2(C)CC3)o1 [CC4, reference compound]	0.51 ± 0.02 fold
CC(=O)NCCc1noc([C@]23CCC(C)(C)C[C@H]2[C@H]2C(=O)C=C4[C@@]5(C)C=C(C#N)C(=O)C(C)(C)[C@@H]5CC[C@@]4(C)[C@]2(C)CC3)n1 [Compound T19]	0.60 fold
CC(=O)OCCc1noc([C@]23CCC(C)(C)C[C@H]2[C@H]2C(=O)C=C4[C@@]5(C)C=C(C#N)C(=O)C(C)(C)[C@@H]5CC[C@@]4(C)[C@]2(C)CC3)n1 [Compound T14]	0.31 fold
CC1(C)CC[C@]2(c3nc(C(C)(C)C)no3)CC[C@]3(C)[C@H](C(=O)C=C4[C@@]5(C)C=C(C#N)C(=O)C(C)(C)[C@@H]5CC[C@]43C)[C@@H]2C1 [Compound T28]	13.75 fold
CC1(C)CC[C@]2(c3noc(C4CC4)n3)CC[C@]3(C)[C@H](C(=O)C=C4[C@@]5(C)C=C(C#N)C(=O)C(C)(C)[C@@H]5CC[C@]43C)[C@@H]2C1 [Compound T25]	3.08 ± 1.54 fold
CC1(C)CC[C@]2(c3nc(C(F)(F)F)no3)CC[C@]3(C)[C@H](C(=O)C=C4[C@@]5(C)C=C(C#N)C(=O)C(C)(C)[C@@H]5CC[C@]43C)[C@@H]2C1 [Compound T22]	7.71 ± 2.33 fold
Cc1nnc([C@]23CCC(C)(C)C[C@H]2[C@H]2C(=O)C=C4[C@@]5(C)C=C(C#N)C(=O)C(C)(C)[C@@H]5CC[C@@]4(C)[C@]2(C)CC3)o1 [CC1, reference compound]	0.78 ± 0.10 fold

---

# System: RAW 264.7 cells
# TEST: Nitric oxide suppression assay (IFNγ-induced NO production)
# Type: cell-based, mouse
# ASSAY CONTEXT: average of ratios from replicate experiments; benchmark RTA 402
Threshold check on NO IC50 Relative to RTA 402 (fold) (Mean ± SD): at or above 3 fold gives Condition met, strictly below gives Condition not met.

LINE NOTATION	MEASURED TARGET	CLASSIFICATION
CCc1nc([C@]23CCC(C)(C)C[C@H]2[C@H]2C(=O)C=C4[C@@]5(C)C=C(C#N)C(=O)C(C)(C)[C@@H]5CC[C@@]4(C)[C@]2(C)CC3)no1	RAW 264.7 cells	Condition not met
CC1(C)CC[C@]2(c3noc(CF)n3)CC[C@]3(C)[C@H](C(=O)C=C4[C@@]5(C)C=C(C#N)C(=O)C(C)(C)[C@@H]5CC[C@]43C)[C@@H]2C1	RAW 264.7 cells	Condition not met
CC1(C)CC[C@]2(c3noc(CCN)n3)CC[C@]3(C)[C@H](C(=O)C=C4[C@@]5(C)C=C(C#N)C(=O)C(C)(C)[C@@H]5CC[C@]43C)[C@@H]2C1	RAW 264.7 cells	Condition not met
CC1(C)CC[C@]2(c3nc(CCN)no3)CC[C@]3(C)[C@H](C(=O)C=C4[C@@]5(C)C=C(C#N)C(=O)C(C)(C)[C@@H]5CC[C@]43C)[C@@H]2C1	RAW 264.7 cells	Condition not met
C[C@@H]1C(=O)C(C#N)=C[C@]2(C)C3=CC(=O)[C@@H]4[C@@H]5CC(C)(C)CC[C@]5(c5nc(CF)no5)CC[C@@]4(C)[C@]3(C)CC[C@@H]12	RAW 264.7 cells	Condition not met
CC1(C)CC[C@]2(c3noc(C(F)(F)F)n3)CC[C@]3(C)[C@H](C(=O)C=C4[C@@]5(C)C=C(C#N)C(=O)C(C)(C)[C@@H]5CC[C@]43C)[C@@H]2C1	RAW 264.7 cells	Condition met
CCCc1noc([C@]23CCC(C)(C)C[C@H]2[C@H]2C(=O)C=C4[C@@]5(C)C=C(C#N)C(=O)C(C)(C)[C@@H]5CC[C@@]4(C)[C@]2(C)CC3)n1	RAW 264.7 cells	Condition met

---

GSH EC50 Relative to RTA 402 (fold) (Mean ± SD) values for the compounds below.
# Test system: AML-12 hepatocyte cell line
# TEST: Glutathione assay (total glutathione, GSH-Glo)
# Type: cell-based, mouse
# ASSAY CONTEXT: benchmark RTA 402
MEASUREMENT TYPE: GSH EC50 Relative to RTA 402 (fold) (Mean ± SD)

COMPOUND	RESULT
CC1(C)CC[C@]2(c3nc(C(F)(F)F)no3)CC[C@]3(C)[C@H](C(=O)C=C4[C@@]5(C)C=C(C#N)C(=O)C(C)(C)[C@@H]5CC[C@]43C)[C@@H]2C1 [Compound T22]	8.72 ± 1.98 fold
CC1(C)CC[C@]2(c3nc(C(F)F)no3)CC[C@]3(C)[C@H](C(=O)C=C4[C@@]5(C)C=C(C#N)C(=O)C(C)(C)[C@@H]5CC[C@]43C)[C@@H]2C1 [Compound T43]	1.60 ± 0.05 fold
CCc1noc([C@]23CCC(C)(C)C[C@H]2[C@H]2C(=O)C=C4[C@@]5(C)C=C(C#N)C(=O)C(C)(C)[C@@H]5CC[C@@]4(C)[C@]2(C)CC3)n1 [Compound T23]	2.05 ± 0.44 fold

---

# Test system: AREc32 reporter cell line (antioxidant response element of rat Gsta2, Nrf2 target gene)
# TEST: AREc32 luciferase reporter activation
# Format: cell-based, human
# ASSAY CONTEXT: comparison compound CC2; average of ratios from experiments with direct comparisons
Threshold check on AREc32 Relative to CC in Same Experiment (Mean ± SD): at or above 0.8 gives YES, strictly below gives NO.

MOLECULE	CLASSIFICATION
CC1(C)CC[C@]2(c3nc(C(F)F)no3)CC[C@]3(C)[C@H](C(=O)C=C4[C@@]5(C)C=C(C#N)C(=O)C(C)(C)[C@@H]5CC[C@]43C)[C@@H]2C1 [Compound T43]	YES
CCc1noc([C@]23CCC(C)(C)C[C@H]2[C@H]2C(=O)C=C4[C@@]5(C)C=C(C#N)C(=O)C(C)(C)[C@@H]5CC[C@@]4(C)[C@]2(C)CC3)n1 [Compound T23]	YES
CC1(C)CC[C@]2(c3nc(CCO)no3)CC[C@]3(C)[C@H](C(=O)C=C4[C@@]5(C)C=C(C#N)C(=O)C(C)(C)[C@@H]5CC[C@]43C)[C@@H]2C1 [Compound T13]	NO
CC1(C)CC[C@]2(c3noc(CF)n3)CC[C@]3(C)[C@H](C(=O)C=C4[C@@]5(C)C=C(C#N)C(=O)C(C)(C)[C@@H]5CC[C@]43C)[C@@H]2C1 [Compound T1]	NO
CC1(C)CC[C@]2(c3noc(CN)n3)CC[C@]3(C)[C@H](C(=O)C=C4[C@@]5(C)C=C(C#N)C(=O)C(C)(C)[C@@H]5CC[C@]43C)[C@@H]2C1 [Compound T2]	NO
CC1(C)CC[C@]2(c3nc(CF)no3)CC[C@]3(C)[C@H](C(=O)C=C4[C@@]5(C)C=C(C#N)C(=O)C(C)(C)[C@@H]5CC[C@]43C)[C@@H]2C1 [Compound T12]	NO
Cc1noc([C@]23CCC(C)(C)C[C@H]2[C@H]2C(=O)C=C4[C@@]5(C)C=C(C#N)C(=O)C(C)(C)[C@@H]5CC[C@@]4(C)[C@]2(C)CC3)n1 [CC2, reference compound]	YES

---

# MEASURED TARGET: CYP3A4 (Homo sapiens, UniProt P08684)
# Sequence (P08684 whole entry): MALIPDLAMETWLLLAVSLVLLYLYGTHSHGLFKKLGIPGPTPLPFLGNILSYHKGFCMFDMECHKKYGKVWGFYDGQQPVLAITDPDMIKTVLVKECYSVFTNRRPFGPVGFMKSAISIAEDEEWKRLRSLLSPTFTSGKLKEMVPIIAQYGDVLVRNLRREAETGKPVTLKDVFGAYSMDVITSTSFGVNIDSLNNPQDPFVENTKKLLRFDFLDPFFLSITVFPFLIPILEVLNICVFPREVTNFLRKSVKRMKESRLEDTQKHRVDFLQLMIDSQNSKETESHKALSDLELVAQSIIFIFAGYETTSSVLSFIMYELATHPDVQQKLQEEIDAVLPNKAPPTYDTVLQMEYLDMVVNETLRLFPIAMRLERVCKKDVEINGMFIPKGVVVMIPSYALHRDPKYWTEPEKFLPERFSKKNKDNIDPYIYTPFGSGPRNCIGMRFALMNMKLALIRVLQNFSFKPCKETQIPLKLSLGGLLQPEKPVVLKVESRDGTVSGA
# TEST: CYP3A4 (midazolam) inhibition in human liver microsomes
# ASSAY CONTEXT: vs CC2, CC1 or CC3; 1 μM
CYP3A4 inhibition lower than the corresponding unsubstituted compound values for the compounds below.
MEASUREMENT TYPE: CYP3A4 inhibition lower than the corresponding unsubstituted compound (%)

COMPOUND	MEASURED TARGET	NUMERIC VALUE
CC1(C)CC[C@]2(c3nc(CF)no3)CC[C@]3(C)[C@H](C(=O)C=C4[C@@]5(C)C=C(C#N)C(=O)C(C)(C)[C@@H]5CC[C@]43C)[C@@H]2C1 [Compound T12]	CYP3A4 (Homo sapiens, UniProt P08684)	35
CC1(C)CC[C@]2(c3noc(CF)n3)CC[C@]3(C)[C@H](C(=O)C=C4[C@@]5(C)C=C(C#N)C(=O)C(C)(C)[C@@H]5CC[C@]43C)[C@@H]2C1 [Compound T1]	CYP3A4 (Homo sapiens, UniProt P08684)	36
C[C@@H]1C(=O)C(C#N)=C[C@]2(C)C3=CC(=O)[C@@H]4[C@@H]5CC(C)(C)CC[C@]5(c5nc(CF)no5)CC[C@@]4(C)[C@]3(C)CC[C@@H]12 [Compound T34]	CYP3A4 (Homo sapiens, UniProt P08684)	22
CC1(C)CC[C@]2(c3noc(CN)n3)CC[C@]3(C)[C@H](C(=O)C=C4[C@@]5(C)C=C(C#N)C(=O)C(C)(C)[C@@H]5CC[C@]43C)[C@@H]2C1 [Compound T2]	CYP3A4 (Homo sapiens, UniProt P08684)	53
CC1(C)CC[C@]2(c3nnc(CF)o3)CC[C@]3(C)[C@H](C(=O)C=C4[C@@]5(C)C=C(C#N)C(=O)C(C)(C)[C@@H]5CC[C@]43C)[C@@H]2C1 [Compound T11]	CYP3A4 (Homo sapiens, UniProt P08684)	15
